# tested target: GlyT2 I545L mutant (Homo sapiens, UniProt Q9Y345, I545L)
# Construct: expressed in transfected cells; host or cells: Xenopus laevis oocytes (cRNA injection)
# Sequence (Q9Y345 1-797 I545L): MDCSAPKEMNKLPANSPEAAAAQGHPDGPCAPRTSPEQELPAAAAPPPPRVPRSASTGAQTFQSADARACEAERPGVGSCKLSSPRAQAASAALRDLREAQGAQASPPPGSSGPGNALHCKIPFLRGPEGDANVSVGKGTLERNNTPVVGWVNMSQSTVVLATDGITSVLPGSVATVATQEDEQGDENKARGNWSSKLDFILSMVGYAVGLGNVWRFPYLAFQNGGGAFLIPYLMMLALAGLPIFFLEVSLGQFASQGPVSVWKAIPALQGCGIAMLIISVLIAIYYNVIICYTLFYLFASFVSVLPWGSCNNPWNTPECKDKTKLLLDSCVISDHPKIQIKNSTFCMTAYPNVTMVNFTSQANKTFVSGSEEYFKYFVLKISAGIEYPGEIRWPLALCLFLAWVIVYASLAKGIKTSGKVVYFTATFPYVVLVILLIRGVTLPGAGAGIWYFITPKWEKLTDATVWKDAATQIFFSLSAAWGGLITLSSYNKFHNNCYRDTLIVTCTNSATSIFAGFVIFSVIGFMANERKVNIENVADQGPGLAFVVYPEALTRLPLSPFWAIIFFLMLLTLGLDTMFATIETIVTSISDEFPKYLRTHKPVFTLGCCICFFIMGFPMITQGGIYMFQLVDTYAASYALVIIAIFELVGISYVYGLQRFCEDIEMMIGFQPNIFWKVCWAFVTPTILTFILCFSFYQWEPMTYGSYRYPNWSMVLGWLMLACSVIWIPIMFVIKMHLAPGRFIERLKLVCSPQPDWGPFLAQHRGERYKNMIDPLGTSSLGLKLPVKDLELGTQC
# measurement description: Glycine transport currents, two electrode voltage clamp, Xenopus laevis oocytes expressing GlyT2 I545L
# Assay type: cell-based
# measurement parameters: GlyT2 I545L; mean (95% CI)

{"columns": ["molecule", "IC50"],
 "data": [
  ["CCCCCCCC/C=C\\CCCCCCCC(=O)N[C@@H](CCCCN)C(=O)O [oleoyl l-Lysine]", "443 nM"]
]}

----------
% Max. inhibition: recorded values
# tested target: GlyT2 W563L mutant (Homo sapiens, UniProt Q9Y345, W563L)
# Construct: expressed in transfected cells; host or cells: Xenopus laevis oocytes (cRNA injection)
# measurement description: Glycine transport currents, two electrode voltage clamp, oocytes expressing GlyT2 W563L
# Format: cell-based
# measurement parameters: GlyT2 W563L; mean ± SEM
# Procedure: Glycine was first applied to establish maximal transport current. Compounds were tested for inhibition of glycine transport on Xenopus laevis oocytes expressing mutant GlyT1 and GlyT2 transporters. n values are in brackets, with measurements taken from at least 2 batches of oocytes.

{"columns": ["compound", "% Max. inhibition"],
 "data": [
  ["CCCCCCCC/C=C\\CCCCCCCC(=O)O[C@H](CC(=O)[O-])C[N+](C)(C)C [oleoyl L-Carnitine, reference compound]", "34.7 ± 3.2 (p=0.0001) %"],
  ["CCCCCCCC/C=C\\CCCCCCCC(=O)N[C@@H](CC(=O)O)C(=O)O [oleoyl l-Aspartate]", "74.9 ± 7.5 (p=0.9965) %"],
  ["CCCCCCCC/C=C\\CCCCCCCC(=O)NCC(=O)O [N-oleoyl Glycine, reference compound]", "46.6 ± 4.0 (p=0.0449) %"],
  ["CCCCCCCC/C=C\\CCCCCCCC(=O)N[C@@H](CO)C(=O)O", "62.3 ± 5.3 (p=0.3662) %"],
  ["CCCCCCCC/C=C\\CCCCCCCC(=O)N[C@@H](CCCCN)C(=O)O", "73.5 ± 3.3 (p=0.1479) %"],
  ["CCCCCCCC/C=C\\CCCCCCCC(=O)N[C@@H](Cc1c[nH]c2ccccc12)C(=O)O", "42.9 ± 2.6 (p=0.0001) %"]
]}

----------
# tested target: GlyT2 R439L mutant (Homo sapiens, UniProt Q9Y345, R439L)
# measurement description: Glycine transport currents, two electrode voltage clamp, oocytes expressing GlyT2 R439L
# measurement parameters: glycine transport, GlyT2 R439L (TM5)

{"columns": ["smiles notation", "EC50"],
 "data": [
  ["NCC(=O)O", "23 µM"]
]}

----------
# tested target: GlyT2 I545L mutant (Homo sapiens, UniProt Q9Y345, I545L)
# Construct: expressed in transfected cells; host or cells: Xenopus laevis oocytes (cRNA injection)
# measurement description: Glycine transport currents, two electrode voltage clamp, Xenopus laevis oocytes expressing GlyT2 I545L
# Type: cell-based
# measurement parameters: GlyT2 I545L; greater than maximum concentration applied (footnote a)
# Description: Glycine was first applied to establish maximal transport current. Compounds were tested for inhibition of glycine transport on Xenopus laevis oocytes expressing mutant GlyT1 and GlyT2 transporters. n values are in brackets, with measurements taken from at least 2 batches of oocytes.
Property: IC50; scope: individual compounds
assay endpoint: IC50

{"columns": ["compound", "reading"],
 "data": [
  ["CCCCCCCC/C=C\\CCCCCCCC(=O)N[C@H](C(=O)O)C(C)C", "> 10 µM"],
  ["CCCCCCCC/C=C\\CCCCCCCC(=O)N[C@@H](CC(=O)O)C(=O)O [oleoyl l-Aspartate]", "> 10 µM"],
  ["CCCCCCCC/C=C\\CCCCCCCC(=O)N[C@@H](Cc1c[nH]c2ccccc12)C(=O)O", "> 10 µM"]
]}

----------
Reported pIC50 values for a set of molecules
# tested target: GlyT2 P561S mutant (Homo sapiens, UniProt Q9Y345, P561S)
# Construct: expressed in transfected cells; host or cells: Xenopus laevis oocytes (cRNA injection)
# measurement description: Glycine transport currents, two electrode voltage clamp, oocytes expressing GlyT2 P561S
# Format: cell-based
# measurement parameters: GlyT2 P561S; mean (95% CI)
pIC50: −log10 of the molar value.

{"columns": ["molecule", "pIC50"],
 "data": [
  ["CCCCCCCC/C=C\\CCCCCCCC(=O)N[C@@H](Cc1c[nH]c2ccccc12)C(=O)O", 6.50],
  ["CCCCCCCC/C=C\\CCCCCCCC(=O)N[C@@H](CCCCN)C(=O)O", 7.16],
  ["CCCCCCCC/C=C\\CCCCCCCC(=O)NCC(=O)O [N-oleoyl Glycine, reference compound]", 6.25],
  ["CCCCCCCC/C=C\\CCCCCCCC(=O)N[C@H](C(=O)O)C(C)C", 6.12],
  ["CCCCCCCC/C=C\\CCCCCCCC(=O)N[C@@H](CC(=O)O)C(=O)O [oleoyl l-Aspartate]", 5.60],
  ["CCCCCCCC/C=C\\CCCCCCCC(=O)N[C@@H](CO)C(=O)O", 6.24]
]}

----------
# tested target: GlyT1 L425I mutant (Homo sapiens, UniProt P48067, L439I)
# Sequence (P48067 1-652 isoform P48067-3 L385I): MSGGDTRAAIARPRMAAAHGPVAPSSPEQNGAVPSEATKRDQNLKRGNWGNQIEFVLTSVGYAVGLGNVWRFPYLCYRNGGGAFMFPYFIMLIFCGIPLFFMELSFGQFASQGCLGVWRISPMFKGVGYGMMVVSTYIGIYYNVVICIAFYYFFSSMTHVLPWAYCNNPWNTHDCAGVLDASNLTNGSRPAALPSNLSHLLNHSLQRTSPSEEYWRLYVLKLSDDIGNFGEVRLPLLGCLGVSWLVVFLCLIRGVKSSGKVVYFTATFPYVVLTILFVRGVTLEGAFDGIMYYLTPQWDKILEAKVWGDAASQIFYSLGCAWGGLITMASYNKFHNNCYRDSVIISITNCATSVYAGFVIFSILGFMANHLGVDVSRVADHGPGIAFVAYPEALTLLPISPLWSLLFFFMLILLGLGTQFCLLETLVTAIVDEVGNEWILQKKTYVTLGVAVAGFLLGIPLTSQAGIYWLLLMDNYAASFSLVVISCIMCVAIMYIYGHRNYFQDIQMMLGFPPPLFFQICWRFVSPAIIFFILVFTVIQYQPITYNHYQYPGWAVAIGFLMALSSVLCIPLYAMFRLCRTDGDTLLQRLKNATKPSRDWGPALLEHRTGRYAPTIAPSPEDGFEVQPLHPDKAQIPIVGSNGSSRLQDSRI
# measurement description: Glycine transport currents, two electrode voltage clamp, oocytes expressing GlyT1 L425I
# measurement parameters: glycine transport, GlyT1 mutant printed I425L (EL4)

{"columns": ["smiles notation", "EC50, µM"],
 "data": [
  ["NCC(=O)O", 45.1]
]}

Origin of values: paper PMC6797481
